test: Metabolic stability in rat liver microsomes assessed as compound remaining incubated for 30 mins; type: ADME, Microsome; conditions: read-out: Stability
observable: remaining at 0.5 h

What measured remaining at 0.5 h goes with CC(C)(C)Nc1ncc(-c2cnn(C(C)(C)CC(=O)O)c2)cc1-c1nc2ccccc2o1 ?
> 99.9%
